- protocol_description: sensitizers of A549 cells to miR-34 induction, primary screen, imaging, A549 dox-inducible miR-34, nuclei and caspase counts (AID 1347080); note: test concentration not given here
- measurement_setup: A549 miR-34 inducible, Hoechst nuclei count, 48 h; measured here: relative caspase fold change +Dox/-Dox
endpoint_name: fold change

Sample records with fold change:
Prompt line: Could you share which fold change value was measured for `NC(=O)c1cc(N2CC2)c([N+](=O)[O-])cc1[N+](=O)[O-]` ?
Response line: 1.9

Prompt line: Quick one: fold change of `N=C(N)c1ccc(CS(=O)(=O)F)cc1` ?
Response line: 1.07

Prompt line: Find the recorded fold change belonging to CC1CC[C@@]2(OC1)O[C@H]1C[C@H]3[C@@H]4CC=C5CC(O[C@@H]6OC(CO)C(O[C@@H]7OC(C)C(O)C(O)C7O)C(O)C6O[C@@H]6OC(C)C(O)C(O)C6O)CC[C@]5(C)[C@@H]4CC[C@]3(C)[C@@H]1C2C (some centres not stated) and report it.
Response line: 1.39

Continuing:
Prompt line: So what's the measured fold change for this one? CNC(C)C(O)c1ccccc1 (configuration not stated)
Response line: 2.97

Prompt line: Please look up its fold change: CCC1C=CC=CCC(C)C(O)C(C)C(=O)C(C)C(O)C(C)C(=O)C(C)C(O)C(C)C=CC(=O)OC2C(C)C(CC1)O[C@@]1(CCC(C)C(CC(C)O)O1)C2C (some centres not stated)
Response line: 1.64

Prompt line: Entry CC1(O)C[C@@]23C[C@@H](O)[C@@]4(O)[C@@H](C[C@H](O)C4(C)C)[C@](C)(O)[C@@H]2CCC1[C@H]3O (some centres not stated) : reported fold change = ?
Response line: 1.15

Prompt line: May I ask what fold change has been recorded for `COc1cc2c(cc1O)[C@@H]1Cc3ccc(OC)c(O)c3CN1CC2` ?
Response line: 1.3
